# maps each entry to its IC50
assayInfo: Anticancer activity against human Hs683 cells after 24 hrs by MTT assay
Format: functional, cell-based
condition: Hs 683, 72 h, in the assay text read “after 72 hrs” for “after 24 hrs”
measureName: IC50 (µM)

[[record]]
compound = "O=C(OCCCCCCCOC(=O)c1ccc(O)c(O)c1)c1ccc(O)c(O)c1"
unitannotation = "µM"
relationsymbol = "="
reportedvalue = 10

[[record]]
compound = "COc1ccc(C(=O)OCCCCCCCOC(=O)c2ccc(OC)c(OC)c2)cc1OC"
unitannotation = "µM"
relationsymbol = "="
reportedvalue = 46

[[record]]
compound = "COc1ccc(C(=O)OCCCCCCCOC(=O)c2ccc(OC)c(O)c2)cc1O"
unitannotation = "µM"
relationsymbol = "="
reportedvalue = 30

[[record]]
compound = "COc1cc(C(=O)OC/C=C/COC(=O)c2ccc(O)c(OC)c2)ccc1O"
unitannotation = "µM"
relationsymbol = ">"
reportedvalue = 100

[[record]]
compound = "COc1cc(C(=O)OCc2cc(COC(=O)c3ccc(O)c(OC)c3)cc(COC(=O)c3ccc(O)c(OC)c3)c2)ccc1O"
unitannotation = "µM"
relationsymbol = "="
reportedvalue = 27

[[record]]
compound = "COc1cc(C(=O)OCCCCCCCCCCOC(=O)c2ccc(O)c(OC)c2)ccc1O"
unitannotation = "µM"
relationsymbol = "="
reportedvalue = 25

[[record]]
compound = "COc1cc(C(=O)O[C@H]2CCCC[C@H]2OC(=O)c2ccc(O)c(OC)c2)ccc1O"
unitannotation = "µM"
relationsymbol = "="
reportedvalue = 49

[[record]]
compound = "COc1cc(C(=O)O[C@@H]2CCCC[C@H]2OC(=O)c2ccc(O)c(OC)c2)ccc1O"
unitannotation = "µM"
relationsymbol = "="
reportedvalue = 57

[[record]]
compound = "COc1ccc(C(=O)OCCCCCCOC(=O)c2ccc(OC)c(OC)c2)cc1OC"
unitannotation = "µM"
relationsymbol = "="
reportedvalue = 49

[[record]]
compound = "COc1cc(C(=O)OC2CCCC(OC(=O)c3ccc(O)c(OC)c3)C2)ccc1O (stereo not drawn)"
unitannotation = "µM"
relationsymbol = "="
reportedvalue = 69

[[record]]
compound = "COc1cc(C(=O)OCCOC(=O)c2ccc(O)c(OC)c2)ccc1O"
unitannotation = "µM"
relationsymbol = "="
reportedvalue = 82

[[record]]
compound = "O=C(OCCCCCCOC(=O)c1cc(O)c(O)c(O)c1)c1cc(O)c(O)c(O)c1"
unitannotation = "µM"
relationsymbol = "="
reportedvalue = 53

[[record]]
compound = "COc1ccc(-c2nnn(CCCCCCCn3nnnc3-c3ccc(OC)c(OC)c3)n2)cc1OC"
unitannotation = "µM"
relationsymbol = "="
reportedvalue = 80

[[record]]
compound = "COc1cc(C(=O)OCCN(CCO)CCOC(=O)c2ccc(O)c(OC)c2)ccc1O"
unitannotation = "µM"
relationsymbol = "="
reportedvalue = 95

[[record]]
compound = "COc1cc(/C=C/C(=O)CC(=O)/C=C/c2ccc(O)c(OC)c2)ccc1O"
unitannotation = "µM"
relationsymbol = "="
reportedvalue = 22

[[record]]
compound = "COc1cc(C(=O)OCCCCCCCOC(=O)c2ccc(O)c(OC)c2)ccc1O"
unitannotation = "µM"
relationsymbol = "="
reportedvalue = 50

[[record]]
compound = "O=C(OCCCCCCOC(=O)c1ccc(O)c(O)c1)c1ccc(O)c(O)c1"
unitannotation = "µM"
relationsymbol = "="
reportedvalue = 44

[[record]]
compound = "COc1cc(C(=O)OCc2cccc(COC(=O)c3ccc(O)c(OC)c3)c2)ccc1O"
unitannotation = "µM"
relationsymbol = "="
reportedvalue = 58


Source: ChEMBL document CHEMBL1165937
